These data points were gathered from ChEMBL document CHEMBL6109041.

Measured IC50 (UniProt P49840)
Sequence (P49840 whole entry): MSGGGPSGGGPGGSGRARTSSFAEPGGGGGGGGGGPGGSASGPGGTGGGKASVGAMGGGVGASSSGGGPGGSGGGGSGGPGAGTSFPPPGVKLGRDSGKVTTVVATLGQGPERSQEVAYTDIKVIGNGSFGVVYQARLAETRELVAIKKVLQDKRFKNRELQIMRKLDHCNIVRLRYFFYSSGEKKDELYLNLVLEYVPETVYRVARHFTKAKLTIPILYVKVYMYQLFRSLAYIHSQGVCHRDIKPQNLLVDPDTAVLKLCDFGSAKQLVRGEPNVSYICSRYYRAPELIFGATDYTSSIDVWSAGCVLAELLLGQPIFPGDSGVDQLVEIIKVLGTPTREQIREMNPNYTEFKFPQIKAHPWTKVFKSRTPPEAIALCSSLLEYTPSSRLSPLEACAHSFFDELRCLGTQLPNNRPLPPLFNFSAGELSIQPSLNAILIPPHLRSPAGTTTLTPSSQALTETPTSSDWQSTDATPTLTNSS

>  <COMPOUND>
OC1(c2ccccc2)CSC(=S)N1Cc1ccccc1 (configuration not stated)

>  <MEASUREMENT_NAME>
IC50

>  <RESULT>
> 10 µM

$$$$

Continue with the compound presented below.
Query OC1(c2ccccc2)CSC(=S)N1Cc1ccccn1 (configuration not stated) yields IC50 of > 10 µM
